This section presents binders with their documented Kd values.
Assayed System: T1, TAZ1 domain of mouse CBP (residues 340–439) (mouse, UniProt P45481 340-439)
T1 construct: Isotopically labelled in some NMR samples; also called CBP–TAZ1; CH1; source: purified
T1 sequence (P45481 340-439): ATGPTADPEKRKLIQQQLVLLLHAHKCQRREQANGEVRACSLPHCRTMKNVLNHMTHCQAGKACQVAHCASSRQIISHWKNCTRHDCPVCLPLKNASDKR
Experiment Description: ITC; TAZ1 (169 to 185 µM) in the syringe, GB1-tagged RelA–TA2 peptide (10 to 18 µM) in the cell; 25°C; 20 mM Tris pH 8.0, 150 mM NaCl, 1 mM DTT; single-binding site model
Condition Context: both partners purified
Value expressed in nM; do not type the unit.

Below are worked cases with known answers.
- GB1-tagged RelA–TA2 fragment 425–508 (L449A) (domain or fragment, mouse, UniProt Q04207 425-508, looked up, also called Leu449Ala; source: expressed as His6-GB1 fusion, purified; His6-tag cleaved by TEV protease; not shown: His6, N-terminal, cleaved; GB1, N-terminal, kept) KSTQAGEGTLSEALLHLQFDADEDAGALLGNSTDPGVFTDLASVDNSEFQQLLNQGVSMSHSTAEPMLMEYPEAITRLVTGSQR: 1600
- GB1-tagged RelA–TA2 fragment 425–508 (S467D) (domain or fragment, mouse, UniProt Q04207 425-508, looked up, also called RelA(Ser467Asp); phosphomimetic mutant; source: expressed as His6-GB1 fusion, purified; His6-tag cleaved by TEV protease; not shown: His6, N-terminal, cleaved; GB1, N-terminal, kept) KSTQAGEGTLSEALLHLQFDADEDLGALLGNSTDPGVFTDLADVDNSEFQQLLNQGVSMSHSTAEPMLMEYPEAITRLVTGSQR: 174
- GB1-tagged RelA–TA2 fragment 425–508 wt (domain or fragment, mouse, UniProt Q04207 425-508, looked up, GB1 is the 58-residue B1 domain of streptococcal protein G, kept for concentration determination; also called RelA–TA2 fragment of Lys425–Arg508; source: expressed as His6-GB1 fusion, purified; His6-tag cleaved by TEV protease; not shown: His6, N-terminal, cleaved; GB1, N-terminal, kept) KSTQAGEGTLSEALLHLQFDADEDLGALLGNSTDPGVFTDLASVDNSEFQQLLNQGVSMSHSTAEPMLMEYPEAITRLVTGSQR: 244
- GB1-tagged RelA–TA2 fragment 425–508 (L465A) (domain or fragment, mouse, UniProt Q04207 425-508, looked up, also called Leu465Ala; source: expressed as His6-GB1 fusion, purified; His6-tag cleaved by TEV protease; not shown: His6, N-terminal, cleaved; GB1, N-terminal, kept) KSTQAGEGTLSEALLHLQFDADEDLGALLGNSTDPGVFTDAASVDNSEFQQLLNQGVSMSHSTAEPMLMEYPEAITRLVTGSQR: 1710

Note: attention shifts to another entry.
Tell us which Kd value is on record for GB1-tagged RelA fragment 441–508 wt (domain or fragment, mouse, UniProt Q04207 441-508, looked up, RelA (p65), mouse, residues 441-508; also called N-terminal truncation to remove residues Lys425–His440; source: expressed as His6-GB1 fusion, purified; His6-tag cleaved by TEV protease; not shown: His6, N-terminal, cleaved; GB1, N-terminal, kept) LQFDADEDLGALLGNSTDPGVFTDLASVDNSEFQQLLNQGVSMSHSTAEPMLMEYPEAITRLVTGSQR 387
